Tested on: RARb homodimer (NR concentration 270 nM)
Experiment: PBM binding z-score (relative to random genomic background probes); higher = stronger binding; sequences stand for … in GC…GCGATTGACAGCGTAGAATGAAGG
Measurement type: PBM binding z-score

INSERT INTO results (residue_codes, assay_value) VALUES
  ('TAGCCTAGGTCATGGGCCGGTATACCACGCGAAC', 3.04),
  ('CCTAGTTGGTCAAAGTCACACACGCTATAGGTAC', 1.28),
  ('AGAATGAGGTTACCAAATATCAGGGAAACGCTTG', 0.779),
  ('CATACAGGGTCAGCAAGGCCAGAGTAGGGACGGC', 3.4),
  ('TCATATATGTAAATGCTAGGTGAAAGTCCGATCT', 0.368),
  ('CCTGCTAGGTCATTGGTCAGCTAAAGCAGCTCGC', 3.25),
  ('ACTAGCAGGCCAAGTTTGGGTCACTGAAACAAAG', 2.33),
  ('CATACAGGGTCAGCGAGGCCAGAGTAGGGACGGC', 3.42),
  ('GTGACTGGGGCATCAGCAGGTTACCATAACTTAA', 1.3),
  ('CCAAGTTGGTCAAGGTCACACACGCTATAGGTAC', 4.47),
  ('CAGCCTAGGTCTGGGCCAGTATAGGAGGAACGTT', -0.496),
  ('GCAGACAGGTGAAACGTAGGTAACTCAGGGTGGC', 0.622);

---

Tested on: THRa:RXRa (NR concentration 90 nM, RXRa partner concentration 90 nM)
Experiment: PBM binding z-score (relative to random genomic background probes); higher = stronger binding; sequences stand for … in GC…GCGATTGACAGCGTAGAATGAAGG
Classification field: 1 (yes) = PBM binding z-score at or over 3; 0 (no) = PBM binding z-score under 3.

INSERT INTO measurements (residue_codes, target_or_test_system, cat) VALUES
  ('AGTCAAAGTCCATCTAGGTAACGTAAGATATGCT', 'THRa:RXRa (NR concentration 90 nM, RXRa partner concentration 90 nM)', '0 (no)'),
  ('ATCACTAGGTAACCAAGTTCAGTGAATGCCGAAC', 'THRa:RXRa (NR concentration 90 nM, RXRa partner concentration 90 nM)', '0 (no)'),
  ('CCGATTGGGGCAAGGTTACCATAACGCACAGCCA', 'THRa:RXRa (NR concentration 90 nM, RXRa partner concentration 90 nM)', '0 (no)'),
  ('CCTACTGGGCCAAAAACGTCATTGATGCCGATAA', 'THRa:RXRa (NR concentration 90 nM, RXRa partner concentration 90 nM)', '0 (no)'),
  ('CAAACTAGGTCAAAGGTCATAGTCGAGCCAACCA', 'THRa:RXRa (NR concentration 90 nM, RXRa partner concentration 90 nM)', '1 (yes)'),
  ('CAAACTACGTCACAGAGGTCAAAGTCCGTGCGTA', 'THRa:RXRa (NR concentration 90 nM, RXRa partner concentration 90 nM)', '1 (yes)'),
  ('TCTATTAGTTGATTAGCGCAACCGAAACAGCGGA', 'THRa:RXRa (NR concentration 90 nM, RXRa partner concentration 90 nM)', '0 (no)'),
  ('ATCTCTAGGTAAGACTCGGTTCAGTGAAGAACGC', 'THRa:RXRa (NR concentration 90 nM, RXRa partner concentration 90 nM)', '0 (no)'),
  ('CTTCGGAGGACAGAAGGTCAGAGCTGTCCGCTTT', 'THRa:RXRa (NR concentration 90 nM, RXRa partner concentration 90 nM)', '0 (no)'),
  ('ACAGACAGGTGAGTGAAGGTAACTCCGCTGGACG', 'THRa:RXRa (NR concentration 90 nM, RXRa partner concentration 90 nM)', '0 (no)'),
  ('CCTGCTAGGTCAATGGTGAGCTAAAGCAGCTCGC', 'THRa:RXRa (NR concentration 90 nM, RXRa partner concentration 90 nM)', '0 (no)'),
  ('CATACAGCGTCAGCTAGGCCAGAGTAGGGACGGC', 'THRa:RXRa (NR concentration 90 nM, RXRa partner concentration 90 nM)', '0 (no)'),
  ('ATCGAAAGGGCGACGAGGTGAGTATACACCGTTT', 'THRa:RXRa (NR concentration 90 nM, RXRa partner concentration 90 nM)', '0 (no)'),
  ('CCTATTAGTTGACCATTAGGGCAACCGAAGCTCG', 'THRa:RXRa (NR concentration 90 nM, RXRa partner concentration 90 nM)', '0 (no)'),
  ('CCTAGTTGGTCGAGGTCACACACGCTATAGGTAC', 'THRa:RXRa (NR concentration 90 nM, RXRa partner concentration 90 nM)', '1 (yes)'),
  ('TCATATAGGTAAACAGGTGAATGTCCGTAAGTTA', 'THRa:RXRa (NR concentration 90 nM, RXRa partner concentration 90 nM)', '0 (no)'),
  ('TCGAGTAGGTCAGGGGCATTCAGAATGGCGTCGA', 'THRa:RXRa (NR concentration 90 nM, RXRa partner concentration 90 nM)', '0 (no)'),
  ('GATACAGGGTCAAGGCCAGAGTCCGCGTATTGAT', 'THRa:RXRa (NR concentration 90 nM, RXRa partner concentration 90 nM)', '1 (yes)'),
  ('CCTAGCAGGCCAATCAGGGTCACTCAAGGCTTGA', 'THRa:RXRa (NR concentration 90 nM, RXRa partner concentration 90 nM)', '1 (yes)'),
  ('CCAACTGGGGCAAGGTTACCATAACGCACAGCCA', 'THRa:RXRa (NR concentration 90 nM, RXRa partner concentration 90 nM)', '0 (no)'),
  ('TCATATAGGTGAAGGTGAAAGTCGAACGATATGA', 'THRa:RXRa (NR concentration 90 nM, RXRa partner concentration 90 nM)', '0 (no)'),
  ('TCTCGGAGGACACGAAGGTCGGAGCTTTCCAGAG', 'THRa:RXRa (NR concentration 90 nM, RXRa partner concentration 90 nM)', '0 (no)'),
  ('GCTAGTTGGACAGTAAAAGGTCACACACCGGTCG', 'THRa:RXRa (NR concentration 90 nM, RXRa partner concentration 90 nM)', '1 (yes)'),
  ('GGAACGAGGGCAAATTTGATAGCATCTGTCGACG', 'THRa:RXRa (NR concentration 90 nM, RXRa partner concentration 90 nM)', '0 (no)'),
  ('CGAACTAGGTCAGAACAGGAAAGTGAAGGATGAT', 'THRa:RXRa (NR concentration 90 nM, RXRa partner concentration 90 nM)', '0 (no)'),
  ('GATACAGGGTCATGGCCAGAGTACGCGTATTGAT', 'THRa:RXRa (NR concentration 90 nM, RXRa partner concentration 90 nM)', '1 (yes)'),
  ('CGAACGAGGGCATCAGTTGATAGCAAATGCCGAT', 'THRa:RXRa (NR concentration 90 nM, RXRa partner concentration 90 nM)', '0 (no)'),
  ('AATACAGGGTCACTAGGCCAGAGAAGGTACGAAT', 'THRa:RXRa (NR concentration 90 nM, RXRa partner concentration 90 nM)', '1 (yes)'),
  ('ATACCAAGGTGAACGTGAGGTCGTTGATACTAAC', 'THRa:RXRa (NR concentration 90 nM, RXRa partner concentration 90 nM)', '1 (yes)'),
  ('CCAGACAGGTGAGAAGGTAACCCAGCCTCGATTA', 'THRa:RXRa (NR concentration 90 nM, RXRa partner concentration 90 nM)', '0 (no)'),
  ('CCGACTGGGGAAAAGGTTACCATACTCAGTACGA', 'THRa:RXRa (NR concentration 90 nM, RXRa partner concentration 90 nM)', '0 (no)'),
  ('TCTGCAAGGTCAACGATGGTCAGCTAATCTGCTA', 'THRa:RXRa (NR concentration 90 nM, RXRa partner concentration 90 nM)', '1 (yes)'),
  ('ATACCAAGGTGCTCGTGAGGTCGTTGATACTAAC', 'THRa:RXRa (NR concentration 90 nM, RXRa partner concentration 90 nM)', '1 (yes)'),
  ('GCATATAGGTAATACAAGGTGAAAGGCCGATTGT', 'THRa:RXRa (NR concentration 90 nM, RXRa partner concentration 90 nM)', '1 (yes)');
